Each recorded value in this set is attributed to patent US20180170941A1.

system_under_test: α5β3γ2 GABAA receptors (Ltk cell membranes) (Homo sapiens, UniProt P18507+P31644)
Construct: membranes
Sequence (P31644 32-462): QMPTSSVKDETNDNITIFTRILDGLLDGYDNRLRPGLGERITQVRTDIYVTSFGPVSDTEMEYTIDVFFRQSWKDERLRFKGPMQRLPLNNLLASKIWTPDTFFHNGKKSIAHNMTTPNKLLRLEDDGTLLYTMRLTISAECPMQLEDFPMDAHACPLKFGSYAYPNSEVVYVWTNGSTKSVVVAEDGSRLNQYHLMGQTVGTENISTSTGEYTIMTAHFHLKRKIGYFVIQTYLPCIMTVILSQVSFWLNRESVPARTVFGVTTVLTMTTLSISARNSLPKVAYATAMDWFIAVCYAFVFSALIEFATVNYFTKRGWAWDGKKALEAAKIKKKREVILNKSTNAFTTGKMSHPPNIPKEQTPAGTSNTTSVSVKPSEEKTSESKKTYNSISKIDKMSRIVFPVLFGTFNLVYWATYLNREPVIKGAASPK
Sequence (P28472 26-473 partner): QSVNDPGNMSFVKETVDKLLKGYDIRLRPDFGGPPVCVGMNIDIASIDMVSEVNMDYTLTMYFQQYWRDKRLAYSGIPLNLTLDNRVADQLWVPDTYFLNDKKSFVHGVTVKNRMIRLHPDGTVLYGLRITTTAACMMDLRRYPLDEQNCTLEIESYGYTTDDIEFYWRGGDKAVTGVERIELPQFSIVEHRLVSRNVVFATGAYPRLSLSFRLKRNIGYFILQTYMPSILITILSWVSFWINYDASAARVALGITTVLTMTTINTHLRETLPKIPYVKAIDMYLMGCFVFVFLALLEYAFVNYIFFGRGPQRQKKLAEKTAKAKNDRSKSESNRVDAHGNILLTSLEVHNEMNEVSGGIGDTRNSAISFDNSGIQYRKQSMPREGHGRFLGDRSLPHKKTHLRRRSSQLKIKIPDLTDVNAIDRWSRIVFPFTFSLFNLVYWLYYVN
Sequence (P18507 40-475): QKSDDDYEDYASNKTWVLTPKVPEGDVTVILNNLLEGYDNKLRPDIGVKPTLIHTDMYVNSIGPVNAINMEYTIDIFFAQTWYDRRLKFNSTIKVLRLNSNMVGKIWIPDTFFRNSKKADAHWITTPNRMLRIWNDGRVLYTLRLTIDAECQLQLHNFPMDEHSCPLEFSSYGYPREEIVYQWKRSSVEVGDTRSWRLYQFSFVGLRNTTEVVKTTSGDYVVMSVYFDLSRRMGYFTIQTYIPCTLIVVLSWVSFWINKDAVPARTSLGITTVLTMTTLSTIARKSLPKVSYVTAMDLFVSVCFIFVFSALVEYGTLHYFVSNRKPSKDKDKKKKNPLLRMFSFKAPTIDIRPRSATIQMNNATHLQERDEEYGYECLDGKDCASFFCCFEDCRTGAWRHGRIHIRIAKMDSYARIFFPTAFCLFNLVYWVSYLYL
measurement_notes: Binding activity of test compounds on GABAAR: inhibition of [3H]Ro15-1788 binding
test_conditions: GABA α5 Binding Ki Values, inhibition of [3H]Ro15-1788 binding; reported as ranges
Each entry below carries its reported Ki.

// worked examples, Ki included
COc1ccc2c(c1)-c1nnc(COc3cccc(F)c3)n1Cc1c(-c3noc(C(C)C)n3)ncn1-2 [Compound 179] :: < 100 nM
Clc1ccc2c(c1)-c1nnc(COCc3ccccc3)n1Cc1c(-c3ncco3)ncn1-2 [Compound 350] :: < 100 nM
CC(C)C#Cc1ccc2c(c1)-n1nncc1Cc1c(Br)ncn1-2 [Compound 454] :: < 100 nM
Cc1ccccc1C#Cc1ncn2c1Cc1cnnn1-c1cc(Cl)ccc1-2 [Compound 396] :: < 100 nM
FC(F)(F)CC#Cc1ncn2c1Cc1cnnn1-c1cc(Cl)ccc1-2 [Compound 398] :: < 100 nM
CC(C)OCc1nnc2n1Cc1c(C3=N[C@H](c4ccccc4)CO3)ncn1-c1ccc(Cl)cc1-2 [Compound 268] :: < 100 nM
COCc1nnc2n1Cc1c(C3=N[C@@H](c4cc(F)ccc4F)CO3)ncn1-c1ccc(Cl)cc1-2 [Compound 335] :: < 100 nM
COc1ccc2c(c1)-n1nnc(COc3ccccc3F)c1Cc1c(-c3noc(C)n3)ncn1-2 [Compound 181] :: < 100 nM
CC(C)c1noc(-c2ncn3c2Cn2c(COc4ccccc4)nnc2-c2cc(F)ccc2-3)n1 [Compound 141] :: 100 to 1000 nM
COc1ccc2c(c1)-n1nnc(C(=O)N3CCCC3)c1Cc1c(Br)ncn1-2 [Compound 248] :: 100 to 1000 nM

GET /values?readout=Ki&item= Cc1nnn2c1Cc1c(-c3nc(C(C)C)no3)ncn1-c1ccccc1-2 [Compound 132] < 100 nM

GET /values?readout=Ki&item= COCc1nnc2n1Cc1c(-c3nc(C(C)C)no3)ncn1-c1ccc(Cl)cc1-2 [Compound 206] < 100 nM

GET /values?readout=Ki&item= Cc1nnn2c1Cc1c(Br)ncn1-c1ccc(F)cc1-2 [Compound 136] 100 to 1000 nM

GET /values?readout=Ki&item= COCc1nnc2n1Cc1c(C3=N[C@@H](C)CO3)ncn1-c1ccc(Cl)cc1-2 [Compound 283] 100 to 1000 nM

GET /values?readout=Ki&item= COc1ccc2c(c1)-n1nncc1Cc1c(C3=N[C@@H](c4ccccc4)CO3)ncn1-2 [Compound 289] < 100 nM
